Assay: Plasma and brain concentration / cerebral blood ratio (BBB penetration) in male SD rats after single oral administration
Format: in vivo
Applied conditions: rat, brain, 4 h after single oral administration 5 mg/kg, read-out: Brain concentration
# maps each entry to its concentration at 4 h
Quantity kind: concentration at 4 h (ng/g)

[
  {
    "Compound": "Cc1cc(N2CCCc3cc(Cl)sc3C2)cc(C)c1NC(=O)CC(C)(C)C [Compound 03044]",
    "Units symbol": "ng/g",
    "Obs value": 102
  },
  {
    "Compound": "Cc1cc(N2CCCc3sc(Cl)cc3C2)cc(C)c1NC(=O)CC(C)(C)C [Compound 03043]",
    "Units symbol": "ng/g",
    "Obs value": 65.7
  }
]
